species: Homo sapiens; assay: Selectivity ratio of EC50 for human V1b receptor to EC50 for human OTR
Bridge positions count the residues as written; N and C are the ends. Square brackets hold non-standard residues; d marks the D form. Peptide text beside a SMILES is read from it. Mpa = O=C(O)CCS
Binary classification by Ratio EC50, with 90 as an inclusive lower bound for Satisfied; all other cases are Not satisfied.

molecule	discrete-label
CC[C@H](C)[C@@H]1NC(=O)[C@H](Cc2ccc(O)cc2)NC(=O)CCSSC[C@@H](C(=O)N2CCC[C@H]2C(=O)N[C@@H](CC(C)C)C(=O)NCC(N)=O)NC(=O)[C@H](CC(N)=O)NC(=O)[C@H](C)NC1=O ([Mpa]YIANCPLG-NH2; disulfide 1-6)	Satisfied
CC[C@H](C)[C@@H]1NC(=O)[C@H](Cc2ccc(O)cc2)NC(=O)CCSSC[C@@H](C(=O)N2CCCCC2C(=O)N[C@@H](CC(C)C)C(=O)NCC(N)=O)NC(=O)[C@H](CC(N)=O)NC(=O)[C@H](CCC(N)=O)NC1=O (stereo not given in full)	Satisfied
CC(C)C[C@@H]1NC(=O)[C@H](Cc2ccc(O)cc2)NC(=O)CCSSC[C@@H](C(=O)N2CCC[C@H]2C(=O)N[C@@H](CC(C)C)C(=O)NCC(N)=O)NC(=O)[C@H](CC(N)=O)NC(=O)[C@H](CCC(N)=O)NC1=O ([Mpa]YLQNCPLG-NH2; disulfide 1-6)	Not satisfied
CC[C@H](C)[C@@H]1NC(=O)[C@H](Cc2ccc(O)cc2)NC(=O)CCSSC[C@@H](C(=O)N2CCC[C@H]2C(=O)N[C@@H](CC2CCCCC2)C(=O)NCC(N)=O)NC(=O)[C@H](CC(N)=O)NC(=O)[C@H](CCC(N)=O)NC1=O	Satisfied
CC[C@H](C)[C@@H]1NC(=O)[C@H](Cc2ccc(O)cc2)NC(=O)CCSSC[C@@H](C(=O)NCC(=O)N[C@@H](CC(C)C)C(=O)NCC(N)=O)NC(=O)[C@H](CC(N)=O)NC(=O)[C@H](CCC(N)=O)NC1=O ([Mpa]YIQNCGLG-NH2; disulfide 1-6)	Satisfied
CC[C@H](C)[C@@H]1NC(=O)[C@H](Cc2ccc(O)cc2)NC(=O)CCSSC[C@@H](C(=O)N2CCC[C@H]2C(=O)N[C@@H](CC(C)C)C(=O)N[C@@H](CCCNC(=N)N)C(N)=O)NC(=O)[C@H](CC(N)=O)NC(=O)[C@H](CCC(N)=O)NC1=O ([Mpa]YIQNCPLR-NH2; disulfide 1-6)	Satisfied
CC[C@H](C)[C@@H]1NC(=O)[C@H](Cc2ccc(O)cc2)NC(=O)CCSSC[C@@H](C(=O)N2CCC[C@H]2C(=O)N[C@H](C(=O)NCC(N)=O)C(C)C)NC(=O)[C@H](CC(N)=O)NC(=O)[C@H](CCC(N)=O)NC1=O ([Mpa]YIQNCPVG-NH2; disulfide 1-6)	Satisfied
CC[C@H](C)[C@@H]1NC(=O)[C@H](Cc2ccc(O)cc2)NC(=O)CCSSC[C@@H](C(=O)N[C@@H](C)C(=O)N[C@@H](CC(C)C)C(=O)NCC(N)=O)NC(=O)[C@H](CC(N)=O)NC(=O)[C@H](CCC(N)=O)NC1=O ([Mpa]YIQNCALG-NH2; disulfide 1-6)	Satisfied
CC[C@H](C)[C@@H]1NC(=O)[C@H](Cc2ccc(O)cc2)NC(=O)CCSSC[C@@H](C(=O)N2CCC[C@H]2C(=O)N[C@@H](C)C(=O)NCC(N)=O)NC(=O)[C@H](CC(N)=O)NC(=O)[C@H](CCC(N)=O)NC1=O ([Mpa]YIQNCPAG-NH2; disulfide 1-6)	Not satisfied

###

organism: Homo sapiens; test: Selectivity ratio of EC50 for human V1b receptor to EC50 for human OTR
Bridge positions count the residues as written; N and C are the ends. Square brackets hold non-standard residues; d marks the D form. Peptide text beside a SMILES is read from it. NMeA = CN[C@@H](C)C(=O)O; Mpa = O=C(O)CCS
A collection of compounds and their measured Ratio EC50

compound	Ratio EC50
CCCC[C@H](NC(=O)[C@@H]1CCCN1C(=O)[C@@H]1CSSCCC(=O)N[C@@H](Cc2ccc(O)cc2)C(=O)N[C@@H]([C@@H](C)CC)C(=O)N[C@@H](CCC(N)=O)C(=O)N[C@@H](CC(N)=O)C(=O)N1)C(=O)NCC(N)=O	33
CC[C@H](C)[C@@H]1NC(=O)[C@H](Cc2ccc(O)cc2)NC(=O)CCSSC[C@@H](C(=O)N[C@@H](CCCNC(=N)N)C(=O)N[C@@H](CC(C)C)C(=O)NCC(N)=O)NC(=O)[C@H](CC(N)=O)NC(=O)[C@H](CCC(N)=O)NC1=O ([Mpa]YIQNCRLG-NH2; disulfide 1-6)	> 10
CC[C@H](C)[C@@H]1NC(=O)[C@H](Cc2ccc(O)cc2)NC(=O)CCSSC[C@@H](C(=O)N(C)[C@@H](C)C(=O)N[C@@H](CC(C)C)C(=O)NCC(N)=O)NC(=O)[C@H](CC(N)=O)NC(=O)[C@H](CCC(N)=O)NC1=O ([Mpa]YIQNC[NMeA]LG-NH2; disulfide 1-6)	> 100
CC[C@H](C)[C@@H]1NC(=O)[C@H](Cc2ccc(O)cc2)NC(=O)CCSSC[C@@H](C(=O)N2CCC[C@H]2C(=O)N[C@@H](CCC(=O)O)C(=O)NCC(N)=O)NC(=O)[C@H](CC(N)=O)NC(=O)[C@H](CCC(N)=O)NC1=O ([Mpa]YIQNCPEG-NH2; disulfide 1-6)	> 100

###

target: UniProt:P30559; test: Agonist activity at human OTR expressed in CHO cells assessed as calcium mobilization measured after 30 mins by Fluo-4-AM dye based FLIPR assay
Sequence (P30559 whole entry): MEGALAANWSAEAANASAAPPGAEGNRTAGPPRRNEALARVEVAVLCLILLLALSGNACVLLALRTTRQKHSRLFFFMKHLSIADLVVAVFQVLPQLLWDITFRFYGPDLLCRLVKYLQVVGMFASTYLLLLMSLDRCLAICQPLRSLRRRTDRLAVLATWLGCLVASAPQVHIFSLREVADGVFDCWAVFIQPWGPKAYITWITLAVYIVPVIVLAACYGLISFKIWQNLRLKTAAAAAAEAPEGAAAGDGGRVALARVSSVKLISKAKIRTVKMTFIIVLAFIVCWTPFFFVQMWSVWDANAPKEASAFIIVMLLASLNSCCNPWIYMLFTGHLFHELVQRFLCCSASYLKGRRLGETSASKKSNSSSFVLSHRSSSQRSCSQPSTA
Bridge positions count the residues as written; N and C are the ends. Square brackets hold non-standard residues; d marks the D form. Peptide text beside a SMILES is read from it. NMeS = CN[C@@H](CO)C(=O)O; Mpa = O=C(O)CCS
assay-endpoint: EC50 (nM)

compound	assay-endpoint	value-reported
CC[C@H](C)[C@@H]1NC(=O)[C@H](Cc2ccc(O)cc2)NC(=O)CCSSC[C@@H](C(=O)N2CCC[C@H]2C(=O)N[C@@H](CC2CCCCC2)C(=O)NCC(N)=O)NC(=O)[C@H](CC(N)=O)NC(=O)[C@H](CCC(N)=O)NC1=O	EC50	0.01
CC[C@H](C)[C@@H]1NC(=O)[C@H](Cc2ccc(O)cc2)NC(=O)CCSSC[C@@H](C(=O)N(C)[C@@H](CO)C(=O)N[C@@H](CC(C)C)C(=O)NCC(N)=O)NC(=O)[C@H](CC(N)=O)NC(=O)[C@H](CCC(N)=O)NC1=O ([Mpa]YIQNC[NMeS]LG-NH2; disulfide 1-6)	EC50	0.042
CC[C@H](C)[C@@H]1NC(=O)[C@H](Cc2ccc(O)cc2)NC(=O)CCSSC[C@@H](C(=O)N2CCC[C@H]2C(=O)N[C@@H](CC(C)(C)C)C(=O)NCC(N)=O)NC(=O)[C@H](CC(N)=O)NC(=O)[C@H](CCC(N)=O)NC1=O	EC50	0.0086

###

species on record: Homo sapiens; test: Selectivity ratio of EC50 for human V1a receptor to EC50 for human OTR
Numbered stars: 1 amine (or outer) side, 2 acyl side, 3 side chain; on linkers, the order of the positions; unused ones are H or OH. Bridge positions count the residues as written; N and C are the ends. Square brackets hold non-standard residues; d marks the D form. Peptide text beside a SMILES is read from it. tBuAla = CC(C)(C)C[C@H](N)C(=O)O; NMeA = CN[C@@H](C)C(=O)O; X1 = O=C(CCC[*:2])[*:1]; βAla = NCCC(=O)O; Mpa = O=C(O)CCS

molecule	Ratio EC50
CC[C@H](C)[C@@H]1NC(=O)[C@H](Cc2ccc(O)cc2)NC(=O)CCSSC[C@@H](C(=O)N(C)[C@@H](C)C(=O)N[C@@H](CC(C)C)C(=O)NCC(N)=O)NC(=O)[C@H](CC(N)=O)NC(=O)[C@H](CCC(N)=O)NC1=O ([Mpa]YIQNC[NMeA]LG-NH2; disulfide 1-6)	> 100
CC[C@H](C)[C@@H]1NC(=O)[C@H](Cc2ccc(O)cc2)NC(=O)CCCSC[C@@H](C(=O)N2CCC[C@H]2C(=O)N[C@@H](CC(C)(C)C)C(=O)NCC(N)=O)NC(=O)[C@H](CC(N)=O)NC(=O)[C@H](CCC(N)=O)NC1=O (YIQNCP[tBuAla]G-NH2; linker N-5 via X1)	> 10000
S	> 100
CC[C@H](C)[C@@H]1NC(=O)[C@H](Cc2ccc(O)cc2)NC(=O)CCSSC[C@@H](C(=O)N[C@@H](Cc2ccccc2)C(=O)N[C@@H](CC(C)C)C(=O)NCC(N)=O)NC(=O)[C@H](CC(N)=O)NC(=O)[C@H](CCC(N)=O)NC1=O ([Mpa]YIQNCFLG-NH2; disulfide 1-6)	> 100
CC[C@H](C)[C@@H]1NC(=O)[C@H](Cc2ccc(O)cc2)NC(=O)CCNC(=O)C[C@@H](C(=O)N2CCC[C@H]2C(=O)N[C@@H](CC(C)C)C(=O)NCC(N)=O)NC(=O)[C@H](CC(N)=O)NC(=O)[C@H](CCC(N)=O)NC1=O ([βAla]YIQNDPLG-NH2; lactam N-6)	> 7.7
